- method summary: Growth inhibition of human MCF-10A cells incubated for 72 hrs by MTT assay
- Type: toxicity, cell-based
Decision: GI50 at 72 h beneath 7 µM gives True; GI50 at 72 h meeting or exceeding 7 µM gives False.

- compound: "COc1ccc(CNCCCNS(=O)(=O)c2cc(C(F)(F)F)cc(C(F)(F)F)c2)cc1OC"
  qualitative label: "True"
- compound: "O=S(=O)(NCCCNCc1ccc(Cl)cc1)c1cc(C(F)(F)F)cc(C(F)(F)F)c1"
  qualitative label: "True"
- compound: "COc1ccc(CNCCNS(=O)(=O)c2cc(C(F)(F)F)cc(C(F)(F)F)c2)cc1OC"
  qualitative label: "False"
- compound: "O=S(=O)(NCCCNCc1cccc2ccccc12)c1cc(C(F)(F)F)cc(C(F)(F)F)c1"
  qualitative label: "True"
- compound: "O=S(=O)(NCCNCc1ccc(-c2ccccc2)cc1)c1cc(C(F)(F)F)cc(C(F)(F)F)c1"
  qualitative label: "True"
- compound: "O=S(=O)(NCCCNCc1ccc(Cl)c(Cl)c1)c1cc(C(F)(F)F)cc(C(F)(F)F)c1"
  qualitative label: "True"
- compound: "O=S(=O)(NCCCNCC1COc2ccccc2O1)c1cc(C(F)(F)F)cc(C(F)(F)F)c1 (configuration not stated)"
  qualitative label: "True"
- compound: "O=S(=O)(NCCCNCc1ccc(Cl)c(C(F)(F)F)c1)c1cc(C(F)(F)F)cc(C(F)(F)F)c1"
  qualitative label: "False"
- compound: "O=S(=O)(NCCCCNCc1ccc(Br)cc1)c1cc(C(F)(F)F)cc(C(F)(F)F)c1"
  qualitative label: "True"
- compound: "O=S(=O)(NCCCNCc1ccccc1)c1cc(C(F)(F)F)cc(C(F)(F)F)c1"
  qualitative label: "False"
- compound: "COc1ccc(CNCCCNS(=O)(=O)c2cc(C(F)(F)F)cc(C(F)(F)F)c2)cc1"
  qualitative label: "True"
- compound: "O=S(=O)(NCCCNCc1ccccc1Cl)c1cc(C(F)(F)F)cc(C(F)(F)F)c1"
  qualitative label: "False"
- compound: "COc1cccc(CNCCCNS(=O)(=O)c2cc(C(F)(F)F)cc(C(F)(F)F)c2)c1"
  qualitative label: "True"
- compound: "O=S(=O)(NCCNCc1cccc2ccccc12)c1cc(C(F)(F)F)cc(C(F)(F)F)c1"
  qualitative label: "False"
- compound: "CC(C)(C)c1ccc(CNCCCNS(=O)(=O)c2cc(C(F)(F)F)cc(C(F)(F)F)c2)cc1"
  qualitative label: "True"
- compound: "CN(CCCNS(=O)(=O)c1cc(C(F)(F)F)cc(C(F)(F)F)c1)Cc1ccccc1"
  qualitative label: "False"

====

- Tested on: HT-29
- method summary: Growth inhibition of human HT-29 cells incubated for 72 hrs by MTT assay
- Format: functional
Decision: GI50 beneath 10 µM gives t; GI50 meeting or exceeding 10 µM gives f.

- smiles code: "COc1ccccc1CNCCCNS(=O)(=O)c1cc(C(F)(F)F)cc(C(F)(F)F)c1"
  qualitative label: "f"
- smiles code: "O=S(=O)(NCCCNCc1ccccc1)c1cc(C(F)(F)F)cc(C(F)(F)F)c1"
  qualitative label: "f"
- smiles code: "O=S(=O)(NCCCNCc1ccc(Br)cc1)c1cc(C(F)(F)F)cc(C(F)(F)F)c1"
  qualitative label: "t"
- smiles code: "O=S(=O)(NCCCNCc1cccc2ccccc12)c1cc(C(F)(F)F)cc(C(F)(F)F)c1"
  qualitative label: "t"
- smiles code: "O=S(=O)(NCCCNCc1cccc(Cl)c1)c1cc(C(F)(F)F)cc(C(F)(F)F)c1"
  qualitative label: "f"
- smiles code: "COc1ccc(CNCCCNS(=O)(=O)c2cc(C(F)(F)F)cc(C(F)(F)F)c2)cc1OC"
  qualitative label: "t"
- smiles code: "O=S(=O)(NCCCCNCc1ccc(Br)cc1)c1cc(C(F)(F)F)cc(C(F)(F)F)c1"
  qualitative label: "t"
- smiles code: "CN(CCCNS(=O)(=O)c1cc(C(F)(F)F)cc(C(F)(F)F)c1)Cc1ccccc1"
  qualitative label: "f"
- smiles code: "O=S(=O)(NCCCNCc1ccc(Cl)c(C(F)(F)F)c1)c1cc(C(F)(F)F)cc(C(F)(F)F)c1"
  qualitative label: "f"

Source listed as ChEMBL document CHEMBL5131478.
